- Tested System: PAR4 (Homo sapiens (Human))
- Test Details: FLIPR assay in PAR4-expressing HEK293 cells (PAR4 antagonist activity)
- Type: cell-based
- Experimental Parameters: inhibition of H-Ala-Phe(4-F)-Pro-Gly-Trp-Leu-Val-Lys-Asn-Gly-NH2-induced intracellular calcium mobilization
- Excerpt: The FLIPR assay is an exemplary in vitro assay for measuring the activity of the PAR4 antagonists of the present invention. In this assay, intracellular calcium mobilization is induced in PAR4 expressing cells by a PAR4 agonist and calcium mobilization is monitored. See, e.g., Example A. HEK293 cells stably expressing PAR4 were generated by a standard method of transfection of human PAR4 (F2R23) cDNA expression vector and selected based on PAR4 protein expression or mRNA expression. […]
Recorded measurements of pEC50, one per entry
Quick note: pEC50 means taking -log10 of the concentration in moles per liter.

Answered cases to consult:
# Molecule, pEC50
records = [
    ("COc1cc(OCc2cccc(NC(=O)c3cccnc3Cl)c2)c2cc(-c3cn4nc(OC)sc4n3)oc2c1 [Example 58]", 9.13),
    ("COc1cc(OCc2cccc3c2CCN3C(=O)c2ccc(OC)nc2)c2cc(-c3cn4nc(OC)sc4n3)oc2c1 [Example 127]", 8.54),
    ("COc1cc(OCc2cccc(NC(=O)c3ccc(C)nc3Cl)c2)c2cc(-c3cn4nc(OC)sc4n3)oc2c1 [Example 64]", 8.85),
]

Now for another entry.
Please fill in: pEC50 reported for COc1cc(OCc2cccc(NC(=O)c3ccc(Cl)nc3)c2)c2cc(-c3cn4nc(OC)sc4n3)oc2c1 [Example 53] = 8.46

---

Recorded measurements of log10 EC50, one per entry
- Tested System: UniProt:Q96RI0
- Test Details: FLIPR assay in PAR4-expressing HEK293 cells (PAR4 antagonist activity)
- Experimental Parameters: inhibition of H-Ala-Phe(4-F)-Pro-Gly-Trp-Leu-Val-Lys-Asn-Gly-NH2-induced intracellular calcium mobilization
Hi team, quick reminder: these entries are log10 of EC50 (nM).

Answered cases to consult:
# Compound, log10 EC50
measured = [
    ("COc1cc(OCc2cccc(NC(=O)c3cc(OCc4ccccc4)cc(C(F)(F)F)c3)c2)c2cc(-c3cn4nc(OC)sc4n3)oc2c1 [Example 62]", 1.76),
    ("COc1cc(OCc2cccc(NC(=O)Cc3cc(C)no3)c2)c2cc(-c3cn4nc(OC)sc4n3)oc2c1 [Example 47]", 0.84),
    ("COc1cc(OCc2cccc(NC(=O)c3cnccn3)c2)c2cc(-c3cn4nc(OC)sc4n3)oc2c1 [Example 133]", 0.43),
]

The reported UniProt:Q96RI0 log10 EC50 of COc1cc(OCc2cccc(N(C)C(=O)c3cccc(F)c3)c2)c2cc(-c3cn4nc(OC)sc4n3)oc2c1 [Example 85] is 0.79

The reported UniProt:Q96RI0 log10 EC50 of COc1cc(OCc2cccc3c2CCN3C(=O)c2ccccc2C)c2cc(-c3cn4nc(OC)sc4n3)oc2c1 [Example 122] is 0.70

The reported UniProt:Q96RI0 log10 EC50 of COc1cc(OCc2cccc(NC(=O)c3cc(Cl)cc(Cl)c3)c2)c2cc(-c3cn4nc(OC)sc4n3)oc2c1 [Example 19] is 0.52

The reported UniProt:Q96RI0 log10 EC50 of COc1cc(OCc2cccc(NC(=O)c3c(OC)cccc3OC)c2)c2cc(-c3cn4nc(OC)sc4n3)oc2c1 [Example 162] is 1.04

The reported UniProt:Q96RI0 log10 EC50 of COc1cc(OCc2cccc(NC(=O)c3ccc(F)cc3C(F)(F)F)c2)c2cc(-c3cn4nc(OC)sc4n3)oc2c1 [Example 141] is 0.28

The reported UniProt:Q96RI0 log10 EC50 of COc1cc(OCc2cccc(NC(=O)c3ccccc3)c2)c2cc(-c3cn4nc(OC)sc4n3)oc2c1 [Example 1] is 0.04

The reported UniProt:Q96RI0 log10 EC50 of COc1cc(OCc2cccc(NC(=O)c3cccc(Br)c3)c2)c2cc(-c3cn4nc(OC)sc4n3)oc2c1 [Example 10] is 0.28

The reported UniProt:Q96RI0 log10 EC50 of COc1cc(OCc2cccc(N(C)C(=O)c3ccccc3C)c2)c2cc(-c3cn4nc(OC)sc4n3)oc2c1 [Example 84] is 0.40

---

- Tested System: UniProtKB Q96RI0
- Test Details: FLIPR assay in PAR4-expressing HEK293 cells (PAR4 antagonist activity)
- Experimental Parameters: inhibition of H-Ala-Phe(4-F)-Pro-Gly-Trp-Leu-Val-Lys-Asn-Gly-NH2-induced intracellular calcium mobilization
Measurement Kind: pEC50
Quick note: pEC50 means taking -log10 of the concentration in moles per liter.

Please fill in: pEC50 reported for COc1cc(OCc2cccc(NC(=O)c3ccnc(F)c3)c2)c2cc(-c3cn4nc(OC)sc4n3)oc2c1 = 8.57

Please fill in: pEC50 reported for COc1cc(OCc2cccc(NC(=O)c3cccc(F)c3)c2)c2cc(-c3cn4nc(OC)sc4n3)oc2c1 = 8.70

Please fill in: pEC50 reported for COc1cc(OCc2cccc(NC(=O)c3ccccc3Cl)c2)c2cc(-c3cn4nc(OC)sc4n3)oc2c1 = 8.77

---

Recorded measurements of pEC50, one per entry
- Tested System: PAR4 (Homo sapiens (Human), UniProt Q96RI0)
- Sequence (Q96RI0 18-385): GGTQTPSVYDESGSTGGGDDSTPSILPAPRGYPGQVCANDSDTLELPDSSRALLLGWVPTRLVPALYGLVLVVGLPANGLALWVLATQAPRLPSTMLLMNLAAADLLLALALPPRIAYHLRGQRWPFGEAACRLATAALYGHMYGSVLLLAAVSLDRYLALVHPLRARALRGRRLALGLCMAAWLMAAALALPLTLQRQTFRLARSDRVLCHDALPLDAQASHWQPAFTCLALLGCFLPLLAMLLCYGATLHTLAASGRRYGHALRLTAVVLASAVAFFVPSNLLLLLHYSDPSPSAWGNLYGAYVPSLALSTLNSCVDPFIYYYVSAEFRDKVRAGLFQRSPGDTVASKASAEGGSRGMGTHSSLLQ
- Test Details: FLIPR assay in PAR4-expressing HEK293 cells (PAR4 antagonist activity)
- Experimental Parameters: inhibition of H-Ala-Phe(4-F)-Pro-Gly-Trp-Leu-Val-Lys-Asn-Gly-NH2-induced intracellular calcium mobilization
Quick note: pEC50 means taking -log10 of the concentration in moles per liter.

Answered cases to consult:
# Structure As Smiles, Measurement Kind, Quantitative Readout
records = [
    ("COc1cc(OCc2cccc(NC(=O)c3ccc(F)cc3F)c2)c2cc(-c3cn4nc(OC)sc4n3)oc2c1", "pEC50", 8.89),
    ("COc1cc(OCc2cccc(NC(=O)OC(C)(C)C)c2)c2cc(-c3cn4nc(OC)sc4n3)oc2c1", "pEC50", 8.59),
]

Now for another entry.
The reported PAR4 (Homo sapiens (Human), UniProt Q96RI0) pEC50 of COc1cc(OCc2ccc3c(c2)N(C(=O)c2ccccc2F)CC3)c2cc(-c3cn4nc(OC)sc4n3)oc2c1 is 8.66

---

- Tested System: PAR4 (Homo sapiens (Human))
- Test Details: FLIPR assay in PAR4-expressing HEK293 cells (PAR4 antagonist activity)
- Experimental Parameters: inhibition of H-Ala-Phe(4-F)-Pro-Gly-Trp-Leu-Val-Lys-Asn-Gly-NH2-induced intracellular calcium mobilization
- Source text: The FLIPR assay is an exemplary in vitro assay for measuring the activity of the PAR4 antagonists of the present invention. In this assay, intracellular calcium mobilization is induced in PAR4 expressing cells by a PAR4 agonist and calcium mobilization is monitored. See, e.g., Example A. HEK293 cells stably expressing PAR4 were generated by a standard method of transfection of human PAR4 (F2R23) cDNA expression vector and selected based on PAR4 protein expression or mRNA expression. […]
Recorded measurements of EC50, one per entry

# Structure As Smiles, EC50
data = [
    ("COc1cc(OCc2cccc3c2CCN3C(C)=O)c2cc(-c3cn4nc(OC)sc4n3)oc2c1", "> 3300 nM"),
    ("COc1cccc(C(=O)Nc2cccc(COc3cc(OC)cc4oc(-c5cn6nc(OC)sc6n5)cc34)c2)c1", "36 nM"),
    ("COc1cc(OCc2ccc3c(c2)N(C(=O)c2cccc(F)c2)CC3)c2cc(-c3cn4nc(OC)sc4n3)oc2c1", "4.1 nM"),
    ("COc1cc(OCc2cccc(NC(=O)c3cccc(Cl)c3)c2)c2cc(-c3cn4nc(OC)sc4n3)oc2c1", "1.7 nM"),
]

Now for another entry.
Please fill in: EC50 reported for CCCc1ccc(C(=O)Nc2cccc(COc3cc(OC)cc4oc(-c5cn6nc(OC)sc6n5)cc34)c2)cc1 = 1.3 nM

---

Recorded measurements of pEC50, one per entry
- Tested System: PAR4 (Homo sapiens (Human), UniProt Q96RI0)
- Test Details: FLIPR assay in PAR4-expressing HEK293 cells (PAR4 antagonist activity)
- Experimental Parameters: inhibition of H-Ala-Phe(4-F)-Pro-Gly-Trp-Leu-Val-Lys-Asn-Gly-NH2-induced intracellular calcium mobilization
Quick note: pEC50 means taking -log10 of the concentration in moles per liter.

Answered cases to consult:
# Structure As Smiles, Tested System, pEC50
measured = [
    ("COc1cc(OCc2cccc(NC(=O)c3ccc(F)c(C(F)(F)F)c3)c2)c2cc(-c3cn4nc(OC)sc4n3)oc2c1", "PAR4 (Homo sapiens (Human), UniProt Q96RI0)", 8.74),
    ("COc1cc(OCc2cccc(NC(=O)CC3CCCC3)c2)c2cc(-c3cn4nc(OC)sc4n3)oc2c1", "PAR4 (Homo sapiens (Human), UniProt Q96RI0)", 8.60),
    ("COc1cc(OCc2cccc(NC(=O)c3cccc(C#N)c3)c2)c2cc(-c3cn4nc(OC)sc4n3)oc2c1", "PAR4 (Homo sapiens (Human), UniProt Q96RI0)", 8.85),
    ("COc1cc(OCc2cccc(NC(=O)c3cnoc3-c3ccccc3)c2)c2cc(-c3cn4nc(OC)sc4n3)oc2c1", "PAR4 (Homo sapiens (Human), UniProt Q96RI0)", 8.54),
    ("COc1cc(OCc2cccc(NC(=O)c3c(C)noc3-c3ccccc3)c2)c2cc(-c3cn4nc(OC)sc4n3)oc2c1", "PAR4 (Homo sapiens (Human), UniProt Q96RI0)", 8.46),
    ("COc1cc(OCc2cccc(NC(=O)c3cc(F)cc(F)c3)c2)c2cc(-c3cn4nc(OC)sc4n3)oc2c1", "PAR4 (Homo sapiens (Human), UniProt Q96RI0)", 8.80),
    ("COc1cc(OCc2cccc3c2CCN3C(=O)c2ccccc2OC)c2cc(-c3cn4nc(OC)sc4n3)oc2c1", "PAR4 (Homo sapiens (Human), UniProt Q96RI0)", 6.72),
    ("COc1cc(OCc2cccc(NC(=O)c3ccc(Oc4ccccc4)nc3)c2)c2cc(-c3cn4nc(OC)sc4n3)oc2c1", "PAR4 (Homo sapiens (Human), UniProt Q96RI0)", 8.64),
    ("COc1cc(OCc2cccc(NC(=O)Cc3nc(C)sc3C)c2)c2cc(-c3cn4nc(OC)sc4n3)oc2c1", "PAR4 (Homo sapiens (Human), UniProt Q96RI0)", 9.07),
    ("COc1cc(OCc2cccc(NC(=O)c3cccc(C(F)(F)F)c3)c2)c2cc(-c3cn4nc(OC)sc4n3)oc2c1", "PAR4 (Homo sapiens (Human), UniProt Q96RI0)", 8.70),
]

Now for another entry.
The reported PAR4 (Homo sapiens (Human), UniProt Q96RI0) pEC50 of COc1cc(OCc2cccc(NC(=O)CC3CCCCC3)c2)c2cc(-c3cn4nc(OC)sc4n3)oc2c1 is 8.12
